The measurements presented in this section are drawn from patent US10028934B2.

# target_of_assay: KIT kinase (GST-KIT cytoplasmic domain) (Homo sapiens (Human))
# Sequence (P10721 544-976): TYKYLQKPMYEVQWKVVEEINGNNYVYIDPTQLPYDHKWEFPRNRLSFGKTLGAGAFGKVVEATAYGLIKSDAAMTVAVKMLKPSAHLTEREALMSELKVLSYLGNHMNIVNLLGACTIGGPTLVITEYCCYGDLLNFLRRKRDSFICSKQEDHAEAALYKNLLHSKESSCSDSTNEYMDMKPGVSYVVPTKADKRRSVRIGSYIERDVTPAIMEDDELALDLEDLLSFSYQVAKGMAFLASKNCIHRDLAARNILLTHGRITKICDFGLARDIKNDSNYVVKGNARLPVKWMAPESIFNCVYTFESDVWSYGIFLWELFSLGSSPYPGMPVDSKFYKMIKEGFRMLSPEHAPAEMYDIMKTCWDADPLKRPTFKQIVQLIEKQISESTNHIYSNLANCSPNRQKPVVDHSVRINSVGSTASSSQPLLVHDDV
# experiment_description: Biochemical assay for inhibitors of KIT kinase activity
# protocol_conditions: pre activated enzyme 4 nM, 4.4 microM ATP, 60 minutes at r.t.
property_name: IC50 (nM)
Give the number; nM is assumed, so skip it.

Task: Given CN1CCN(c2ccc(C(=O)Nc3n[nH]c4cc(OCCOCc5ccc(C(F)(F)F)cc5)ccc34)cc2)CC1 , respond with its IC50.
Output: 50

***
Task: Annotate the compound CN1CCN(c2ccc(C(=O)Nc3n[nH]c4cc(OCCOCc5ccc(F)cc5)ccc34)cc2)CC1 with its measured IC50.
Output: 50

---

# IC50 annotations
# System: MV-4-11 cells
# experiment_description: In vitro cell proliferation assay, MV-4-11 (CellTiter-Glo)
# Format: cell-based
# protocol_conditions: MV4-11; human acute leukemia cells bearing FLT3-ITD mutation, 72 h
Structures can show the parent of a compound that is named as a salt.

Task: Determine reported IC50 for CN(C)CCN(C)c1ccc(C(=O)Nc2n[nH]c3cc(OCCOCc4ccccc4)ccc23)cc1 [Cpd. 16] ; test system: MV-4-11 cells.
Output: < 50 nM

Task: Given CN(C)CCCN(C)c1ccc(C(=O)Nc2n[nH]c3cc(OCCOCc4ccccc4)ccc23)cc1 [Cpd. 17] , report its IC50 on MV-4-11 cells.
Output: < 50 nM

Task: Report value only: IC50, MV-4-11 cells, O=C(Nc1n[nH]c2cc(OCCOCc3ccccc3)ccc12)c1ccc(NCCN2CCOCC2)cc1 [Cpd. 25, hydrochloride]
Output: < 50 nM

Task: Give the observed IC50 of CN1CCN(c2ccc(C(=O)Nc3n[nH]c4cc(OC/C=C/c5ccccc5)ccc34)cc2)CC1 [Cpd. 39] for MV-4-11 cells.
Output: 50 nM

Task: Using MV-4-11 cells as the test system, report measured IC50 of CN1CCN(c2ccc(C(=O)Nc3n[nH]c4cc(OCCOCc5ccc(F)cc5)ccc34)cc2)CC1 [Cpd. 32] .
Output: < 50 nM

Task: Enter IC50 (test system MV-4-11 cells) for CN1CCN(c2ccc(C(=O)Nc3n[nH]c4cc(Oc5cccc(OCc6ccccc6)c5)ccc34)cc2)CC1 [Cpd. 9]
Output: 101 nM

---
Task: Enter IC50 (test system MV-4-11 cells) for CN1CCC(Oc2ccc(C(=O)Nc3n[nH]c4cc(OCCOCc5ccccc5)ccc34)cc2)CC1 [Cpd. 22]
Output: < 50 nM

Task: Report the value of IC50 obtained on MV-4-11 cells for CN1CCN(c2ccc(C(=O)Nc3n[nH]c4cc(OCCOCc5ccc(C(F)(F)F)cc5)ccc34)cc2)CC1 [Cpd. 33] .
Output: < 50 nM

---

# System: MV-4-11 cells
# experiment_description: In vitro cell proliferation assay, MV-4-11 (CellTiter-Glo)
# Type: cell-based
# protocol_conditions: MV4-11; human acute leukemia cells bearing FLT3-ITD mutation, 72 h
property_name: IC50 (nM)
Just the number in nM, nothing appended.

Task: Report IC50, nothing else, for this compound: CN1CCN(c2ccc(C(=O)Nc3n[nH]c4cc(OCc5ccccc5)ccc34)cc2)CC1
Output: 683

Continuing:
Task: For the compound CN1CCN(c2ccc(C(=O)Nc3n[nH]c4cc(Oc5ccccc5)ccc34)cc2)CC1 , report IC50.
Output: 1480
